The reported measurements were obtained from PubChem BioAssay (NCATS).

tested on: NIH3T3; test: Cytotoxic Profiling of Annotated Libraries Using Quantitative High-Throughput Screening (AID 1296008); settings: Five cell lines viability, CellTiter-Glo ATP luminescence, 48-72 h; note: nearly all actives have a fitted effect of over 60% in size
Results filed as inconclusive are left out. Calls of active or inactive are those of the source. Calls come from the whole dose curve; as a rule, active = well fitted inhibition curve with a large enough effect; inconclusive = small, poorly fitted or top-dose-only effect; inactive = flat fitted curve, though single readings scatter. Where a SMILES comes first, the peptide text is derived from it.
PROPERTY_MEASURED: outcome

// solved cases for outcome follow
>  <COMPOUND>
NS(=O)(=O)NCCNc1nonc1C(=Nc1ccc(F)c(Br)c1)NO

>  <RESULT>
inactive

$$$$
>  <COMPOUND>
C=C1CCC[C@]2(C)C[C@]3(O)OC(=O)C(C)=C3C[C@@H]12

>  <RESULT>
inactive

$$$$
>  <COMPOUND>
O=C(O)c1ccc(CCCc2ccc(OCCc3ccc(F)cc3)cc2)o1

>  <RESULT>
inactive

$$$$
>  <COMPOUND>
COC(=O)C1C(c2ccc(O)cc2)C(C(=O)OC)C1c1ccc(O)cc1 (configuration not stated)

>  <RESULT>
inactive

$$$$
>  <COMPOUND>
C=CC1C(O[C@@H]2O[C@H](CO)[C@@H](O)[C@H](O)[C@H]2O)OC=C(C(=O)OC)C1Cc1nccc2c1[nH]c1ccccc12 (some centres not stated)

>  <RESULT>
inactive

$$$$
>  <COMPOUND>
COc1ccc(C(OC2OC(CO)C(O)C(O)C2O)C(C)O)cc1 (configuration not stated)

>  <RESULT>
inactive

$$$$
>  <COMPOUND>
O=C(O[C@H]1[C@@H]2C[C@@H]3OC[C@@](O)([C@H]2[C@H](O[C@@H]2O[C@H](CO)[C@@H](O)[C@H](O)[C@H]2O)O3)[C@@H]1O)c1ccccc1

>  <RESULT>
inactive

$$$$
>  <COMPOUND>
CC12CC34C=CC(=O)C(C)(CCC(=O)O)C3C(CC1C4)O2 (configuration not stated)

>  <RESULT>
inactive

$$$$
>  <COMPOUND>
CC1C/C=C/C=C\CCCCC(O)C/C=C/C(=O)O1 (configuration not stated)

>  <RESULT>
inactive

$$$$
>  <COMPOUND>
CC1CCC2C(C)(C)C(O)CCC2(C)C12Cc1c(O)cc3c(c1O2)CN=C3N (configuration not stated)

>  <RESULT>
inactive

$$$$

Problem: For the record `COc1ccc(C(=O)O[C@H]2CC(C)=CC[C@@]3(C)[C@@H](OC(C)=O)C[C@@](O)(C(C)C)[C@H]23)cc1` , what value of outcome is listed for NIH3T3?
Result: inactive

Problem: For the record `C[C@H]1CN(C[C@H](Cc2ccccc2)C(=O)NCC(=O)O)CC[C@@]1(C)c1cccc(O)c1` , what value of outcome is listed for NIH3T3?
Result: inactive

Problem: For the record CC1NC(=O)CNC(=O)C(C(C)C)NC(=O)C2CCCN2C(=O)C(C(C)C)NC(=O)C(Cc2c[nH]c3ccccc23)NC1=O (configuration not stated) (cyclo(GAWVPV); configuration not given here) , what value of outcome is listed for NIH3T3?
Result: inactive

Problem: For the record `C=C(C)C(=O)O[C@H]1C[C@@](C)(OC(C)=O)[C@@]2(O)CC[C@@](C)(O)[C@H](OC(C)=O)[C@@]23OC(=O)C(COC)=C13` , what value of outcome is listed for NIH3T3?
Result: inactive

Problem: For the record Cn1c(=O)cc(N2CCCC(N)C2)n(Cc2ccccc2C#N)c1=O (configuration not stated) , what value of outcome is listed for NIH3T3?
Result: inactive

Problem: For the record CC(C)(C)NCC(O)COc1cccc2c1CCCC2=O (configuration not stated) , what value of outcome is listed for NIH3T3?
Result: inactive

Problem: For the record CC1(C)CC[C@]2(C(=O)O[C@@H]3O[C@H](CO)[C@@H](O)[C@H](O)[C@H]3O)CC[C@]3(C)C(=CCC4[C@@]5(C)C[C@@H](O)[C@H](O)C(CO)(CO)C5CC[C@]43C)C2[C@@H]1O (some centres not stated) , what value of outcome is listed for NIH3T3?
Result: inactive

Problem: For the record `O=C(/C=C/c1ccc(O)cc1)OC[C@H]1O[C@@H](OC(=O)/C=C/c2ccccc2)[C@H](O)[C@@H](O)[C@@H]1O` , what value of outcome is listed for NIH3T3?
Result: inactive
